Details: rat, in vivo, iv, 2 mg/kg
Bridge positions count the residues as written; N and C are the ends. Square brackets hold non-standard residues; d marks the D form. Peptide text beside a SMILES is read from it. * marks the point of attachment. Piperazin2one(3S-Bu,6R-CO) = CCCC[C@@H]1NC[C@H](C(=O)*)NC1=O; X1 = N=C(N)NCCC[C@H]1C(=O)N[C@@H](C(N)=O)CN1*; Nle = CCCC[C@H](N)C(=O)O
ASSAY READOUT: AUC (µM·h)
Answer in µM·h, number only, no unit symbol.

| MOLECULE | AUC [µM·h] |
| --- | --- |
| CCCC[C@@H]1NC[C@H](C(=O)N[C@H]2CSSC[C@@H](C(=O)N[C@@H](Cc3ccc(O)cc3)C(=O)N3C[C@H](C(N)=O)NC(=O)[C@@H]3CCCNC(=N)N)NC(=O)[C@H](CO)NC(=O)[C@H]([C@@H](C)CC)NC(=O)[C@H](C)NC(=O)[C@H](CC(=O)O)NC(=O)[C@H](CCCC)NC(=O)[C@H](C)NC(=O)CNC(=O)CNC(=O)[C@H](Cc3ccccc3)NC(=O)[C@H](Cc3c[nH]cn3)NC2=O)NC1=O [1-100] ({Piperazin2one(3S-Bu,6R-CO)}-CHFGGA[Nle]DAISCY-X1; disulfide 1-12) | 0.042 |

# context switch: different molecule, same AUC
Just so you know, measured AUC for CCCC[C@@H]1NC[C@H](C(=O)N[C@H]2CSSC[C@@H](C(=O)N[C@@H](Cc3ccc(O)cc3)C(=O)N3C[C@H](C(N)=O)NC(=O)[C@@H]3CCCNC(=N)N)NC(=O)[C@H](CO)NC(=O)[C@H]([C@@H](C)CC)NC(=O)[C@H](CCCNC(=N)N)NC(=O)[C@H](CC(=O)O)NC(=O)[C@H](CCCC)NC(=O)[C@H](CCCNC(=N)N)NC(=O)CNC(=O)[C@@H](C)NC(=O)[C@H](Cc3ccccc3)NC(=O)[C@H](Cc3c[nH]cn3)NC2=O)NC1=O [1-68] came out at 0.478
